# Target system: T1, extracellular domain polypeptide of a recombinant B7-H3 variant 2 antigen (R&D Systems, Inc., #2318-B3-050/CF) (human, UniProt Q5ZPR3 29-466)
# T1 construct: Bought recombinant protein; also called recombinant B7-H3 antigen; B7-H3 antigen
# T1 sequence: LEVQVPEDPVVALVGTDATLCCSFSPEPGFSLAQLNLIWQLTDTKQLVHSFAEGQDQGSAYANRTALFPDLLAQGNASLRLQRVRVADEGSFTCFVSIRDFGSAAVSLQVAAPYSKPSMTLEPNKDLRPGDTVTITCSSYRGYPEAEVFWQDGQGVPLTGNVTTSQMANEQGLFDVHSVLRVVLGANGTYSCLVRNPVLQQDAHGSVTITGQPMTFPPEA
# Protocol details: SPR (Biacore), antibody captured on anti-human IgG, B7-H3 variant 2 extracellular domain as analyte
Quantity: pKd
The read-out pKd is expressed as -log10 of concentration in moles per litre.

Field request: pKd | item: humanized M30 antibody M30-H1-L6 (antibody, human IgG1, kappa, V domains shown, Human IgG1/kappa) VH: QVQLVQSGAEVKKPGSSVKVSCKASGYTFTNYVMHWVRQAPGQGLEWMGYINPYNDDVKYNEKFKGRVTITADESTSTAYMELSSLRSEDTAVYYCARWGYYGSPLYYFDYWGQGTLVTVSS VL: EIVLTQSPATLSLSPGERATLSCRASSRLIYMHWYQQKPGQAPRPLIYATSNLASGIPARFSGSGSGTDFTLTISRLEPEDFAVYYCQQWNSNPPTFGQGTKVEIKR
8.47
